Tested on: HeLa cells
Experiment: Phototoxicity assay: HeLa cell viability (PI staining) after LED irradiation
Conditions: 15-minute irradiation; PI viability counting after 2 hours at 37° C.
Metric: Cell viability under 15-minute irradiation (%)
Answer in %, number only, no unit symbol.

Req: I would be grateful if you could share the reported Cell viability under 15-minute irradiation for ClCc1ccc(C2=c3cc4c5c(c3Oc3c2cc2c6c3CCCN6CCC2)CCC[N+]=5CCC4)cc1.[Cl-] .
Resp: 0

Req: Subsequent entry: C[N+]1=C(/C=C/C=C/C=C2\N(Cc3ccc(CCl)cc3)c3ccccc3C2(C)C)C(C)(C)c2ccccc21.[Cl-]
Resp: 0

Req: Then this molecule: CC1(C)C(/C=C/C=C2/N(CCOC(=O)c3ccccc3)c3ccc4ccccc4c3C2(C)C)=[N+](CCOC(=O)c2ccccc2)c2ccc3ccccc3c21.[Br-]
Resp: 25

Req: # iterate: CC1=[N+](CCN)c2ccc3ccccc3c2C1(C)C.[Br-]
Resp: 95

----------
Would you mind telling me the reported Cell viability under 5-minute irradiation of each entry?
Test system: HeLa cells
Test: Phototoxicity assay: HeLa cell viability (PI staining) after LED irradiation
Conditions: 5-minute irradiation; PI viability counting after 2 hours at 37° C.
Hi! Could you send only the number? It should be in %, unit omitted.

Req: Data request, read-out Cell viability under 5-minute irradiation, for CC1=[N+](CCN)c2ccc3ccccc3c2C1(C)C.[Br-]
Resp: 99

Req: Could you do the same for C[N+]1=C(/C=C/C=C/C=C2\N(Cc3ccc(CCl)cc3)c3ccccc3C2(C)C)C(C)(C)c2ccccc21.[Cl-] , please?
Resp: 0

Req: Now try CC1(C)C(/C=C/C=C2/N(CCOC(=O)c3ccccc3)c3ccc4ccccc4c3C2(C)C)=[N+](CCOC(=O)c2ccccc2)c2ccc3ccccc3c21.[Br-] .
Resp: 95

Req: Also need ClCc1ccc(C2=c3cc4c5c(c3Oc3c2cc2c6c3CCCN6CCC2)CCC[N+]=5CCC4)cc1.[Cl-] , thanks.
Resp: 0

----------
Test system: HeLa cells
Assay: Phototoxicity assay: HeLa cell viability (PI staining) after LED irradiation
Details: 1-minute irradiation; PI viability counting after 2 hours at 37° C.
Metric: Cell viability under 1-minute irradiation (%)
Report as a plain number; the unit % is understood.

Req: Field request: Cell viability under 1-minute irradiation | item: C[N+]1=C(/C=C/C=C/C=C2\N(Cc3ccc(CCl)cc3)c3ccccc3C2(C)C)C(C)(C)c2ccccc21.[Cl-] [MitoTracker Deep Red FM]
Resp: 100

Req: Moving on to ClCc1ccc(C2=c3cc4c5c(c3Oc3c2cc2c6c3CCCN6CCC2)CCC[N+]=5CCC4)cc1.[Cl-] [MitoTracker Red CMXRos]
Resp: 86.9

Req: Would you kindly repeat that for CC1=[N+](CCN)c2ccc3ccccc3c2C1(C)C.[Br-] [Probe 1-6] ?
Resp: 100

Req: Likewise for CC1(C)C(/C=C/C=C2/N(CCOC(=O)c3ccccc3)c3ccc4ccccc4c3C2(C)C)=[N+](CCOC(=O)c2ccccc2)c2ccc3ccccc3c21.[Br-] [Probe 1-6-1] ?
Resp: 100
